Molecular target: Peroxisome proliferator-activated receptor gamma (Homo sapiens, UniProt P37231)
Sequence (P37231 whole entry): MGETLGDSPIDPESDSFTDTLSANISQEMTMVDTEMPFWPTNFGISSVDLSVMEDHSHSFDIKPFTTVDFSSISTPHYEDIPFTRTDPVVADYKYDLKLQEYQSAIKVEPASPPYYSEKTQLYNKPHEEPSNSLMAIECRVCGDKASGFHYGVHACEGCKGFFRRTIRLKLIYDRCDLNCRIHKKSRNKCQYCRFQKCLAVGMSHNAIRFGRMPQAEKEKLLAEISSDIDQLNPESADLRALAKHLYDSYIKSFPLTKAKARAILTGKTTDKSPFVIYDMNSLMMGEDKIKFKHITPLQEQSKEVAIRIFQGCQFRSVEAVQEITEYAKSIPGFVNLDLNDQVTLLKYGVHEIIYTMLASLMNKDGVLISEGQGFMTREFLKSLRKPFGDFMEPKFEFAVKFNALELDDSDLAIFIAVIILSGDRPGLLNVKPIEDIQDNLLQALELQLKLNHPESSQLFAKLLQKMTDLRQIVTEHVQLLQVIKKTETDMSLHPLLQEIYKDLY
Reported EC50 values for a set of compounds
Give the quantity in nM, number only.

CC(C)O[C@@H](Cc1ccc(OCc2noc(-c3cc(C(F)(F)F)cc(C(F)(F)F)c3)n2)cc1)C(=O)O    31.6
CCO[C@@H](Cc1ccc(OC/C=C(/c2ccccc2)c2ccc(F)cc2)cc1)C(=O)O    8510
Cc1oc(C2CCCCC2)nc1CCOc1ccc(C[C@H](Oc2ccccc2)C(=O)O)cc1    1

Exercise: Item CCO[C@@H](Cc1ccc(OC/C=C(\c2ccccc2)c2ccc(Br)cc2)cc1)C(=O)O with Peroxisome proliferator-activated receptor gamma (Homo sapiens, UniProt P37231) - EC50?
Key: 4270

Exercise: Please state recorded EC50 (tested on Peroxisome proliferator-activated receptor gamma (Homo sapiens, UniProt P37231)) of CC(C)O[C@H](Cc1ccc(OCc2noc(-c3cc(C(F)(F)F)cc(C(F)(F)F)c3)n2)cc1)C(=O)O
Key: 631

###

Target: Peroxisome proliferator-activated receptor alpha (Homo sapiens, UniProt Q07869)
Sequence (Q07869 whole entry): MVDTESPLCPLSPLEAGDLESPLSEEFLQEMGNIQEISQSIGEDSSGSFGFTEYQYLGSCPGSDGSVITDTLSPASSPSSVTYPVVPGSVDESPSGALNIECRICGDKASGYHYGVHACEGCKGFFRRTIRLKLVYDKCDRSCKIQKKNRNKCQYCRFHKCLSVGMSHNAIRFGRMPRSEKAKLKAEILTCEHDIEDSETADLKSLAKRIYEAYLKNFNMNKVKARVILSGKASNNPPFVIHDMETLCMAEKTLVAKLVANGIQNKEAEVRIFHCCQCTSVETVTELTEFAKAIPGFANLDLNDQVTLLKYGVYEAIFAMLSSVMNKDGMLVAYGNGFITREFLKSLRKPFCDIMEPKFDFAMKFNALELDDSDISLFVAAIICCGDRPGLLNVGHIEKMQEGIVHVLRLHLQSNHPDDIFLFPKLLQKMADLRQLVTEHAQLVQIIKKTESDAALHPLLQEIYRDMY
Assay: Transactivation of Homo sapiens (human) PPARalpha assessed as luciferase activity by reporter gene assay
Reported values of pEC50 for individual entries
Just so you know, pEC50 here is -log10 of the concentration in molar units; reply with that number alone.

Observe how each entry below is paired with its result.
CC(C)O[C@@H](Cc1ccc(OCc2noc(-c3cc(C(F)(F)F)cc(C(F)(F)F)c3)n2)cc1)C(=O)O    8.40
CCO[C@@H](Cc1ccc(OC/C=C(/c2ccccc2)c2ccc(F)cc2)cc1)C(=O)O    5.28
CCO[C@@H](Cc1ccc(OC/C=C(\c2ccccc2)c2ccc(Br)cc2)cc1)C(=O)O    5.66
Cc1oc(C2CCCCC2)nc1CCOc1ccc(C[C@H](Oc2ccccc2)C(=O)O)cc1    9.00
CC(C)O[C@H](Cc1ccc(OCc2noc(-c3cc(C(F)(F)F)cc(C(F)(F)F)c3)n2)cc1)C(=O)O    5.60
CCO[C@@H](Cc1ccc(OCC=C(c2ccc(C)cc2)c2ccc(C)cc2)cc1)C(=O)O    6.16

# evaluate next
Exercise: pEC50 of CCO[C@@H](Cc1ccc(OC/C=C(/c2ccccc2)c2ccc(-c3ccccc3)cc2)cc1)C(=O)O on Peroxisome proliferator-activated receptor alpha (Homo sapiens, UniProt Q07869)?
Key: 6.05

All values here come from ChEMBL document CHEMBL3046236.
